# Protocol Description: Peg3 promoter luciferase inhibitors, potency, dose response, cell-based, HeLa, CREF/GAPDH counter-screen panel (AID 624167)
# Condition Info: CREF/GAPDH counter-screens; GAPDH; mean of runs
The source made the active and inactive calls.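 Rule for the calls: active = mean IC50 for reducing PEG3 promoter reporter signal at or below a set limit, with IC50 above the limit in both counter screens; inactive = the rest, including counter screen hits.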
Reported values of IC50 for individual entries

Some entries whose results are on file:
[[record]]
molecule = "Cc1ccc(/C=C2\\SC(=S)N(CCCC(=O)Nc3ccccn3)C2=O)cc1"
measured_result = "12.8 µM"

[[record]]
molecule = "Cc1cc(NC(c2ccc(Cl)cc2)c2ccc3cccnc3c2O)no1 (stereo unspecified)"
measured_result = "> 100 µM (inactive)"

[[record]]
molecule = "O=C(O)c1ccc(N/N=C/c2ccc3c(c2)OCO3)cc1"
measured_result = "2.02 µM"

[[record]]
molecule = "CC(C)CCCCCCCCCCCCC(=O)NCC(=O)NC1C(O)C(O)C(Nc2ncnc3nc[nH]c23)OC1C(O)CO (stereo unspecified)"
measured_result = "< 0.2 µM"

[[record]]
molecule = "CCCCC(=O)NC(c1ccc(OC)cc1)c1ccc2cccnc2c1O (stereo unspecified)"
measured_result = "> 100 µM (inactive)"

[[record]]
molecule = "O=C(/C=C/c1ccc(Cl)c([N+](=O)[O-])c1)c1ccc(O)cc1"
measured_result = "16.6 µM"


Request: Look at this molecule and give its reported IC50. CCc1ccc(/C=C2\SC(=S)N(CCCC(=O)Nc3ccccn3)C2=O)cc1
Response: 27.8 µM

Request: Look at this molecule and give its reported IC50. O=c1c2ccccc2sc2nc(CCl)nn12
Response: 11.2 µM

Request: Look at this molecule and give its reported IC50. CN(O)C(=S)c1ccccc1
Response: > 100 µM (inactive)

Request: Look at this molecule and give its reported IC50. Cc1ccc(C)c(S(=O)(=O)N2CCN(c3ncnc4sccc34)CC2)c1
Response: 28.7 µM
